ASSAYED SYSTEM: wild-type un-phosphorylated FGFR4 (Homo sapiens)
ASSAY TEXT: FGFR Enzymatic Assay (FRET peptide phosphorylation), FGFR4
pIC50: −log10 of the molar value.
Overview of reported pIC50 across a group of molecules:

Consider the worked cases shown below.
| MOLECULE | METRIC | OBSERVED MEASUREMENT |
| --- | --- | --- |
| COc1cc2[nH]nc(-c3ccc(C4(C#N)CCN(C(=O)CO)C4)nc3)c2nc1-c1cccc2c1CCC2 (stereo not drawn) [Example 198] | pIC50 | 7.00 to 7.40 |
| COc1cc2[nH]nc(-c3ccc(CN4CC5CC4CO5)nc3)c2nc1-c1cccc2c1CCC2 (stereo not drawn) [Example 161] | pIC50 | 7.00 to 7.40 |

Using the record for COc1cc2[nH]nc(-c3ccc(C4CC(N(C)C(=O)[C@H](C)O)C4)nc3)c2nc1-c1cccc2c1CCC2 (stereo partly drawn) [Example 190] , report its pIC50. 7.00 to 7.40

---

ASSAYED SYSTEM: wild-type un-phosphorylated FGFR4 (Homo sapiens, UniProt P22455)
Sequence (P22455 22-802): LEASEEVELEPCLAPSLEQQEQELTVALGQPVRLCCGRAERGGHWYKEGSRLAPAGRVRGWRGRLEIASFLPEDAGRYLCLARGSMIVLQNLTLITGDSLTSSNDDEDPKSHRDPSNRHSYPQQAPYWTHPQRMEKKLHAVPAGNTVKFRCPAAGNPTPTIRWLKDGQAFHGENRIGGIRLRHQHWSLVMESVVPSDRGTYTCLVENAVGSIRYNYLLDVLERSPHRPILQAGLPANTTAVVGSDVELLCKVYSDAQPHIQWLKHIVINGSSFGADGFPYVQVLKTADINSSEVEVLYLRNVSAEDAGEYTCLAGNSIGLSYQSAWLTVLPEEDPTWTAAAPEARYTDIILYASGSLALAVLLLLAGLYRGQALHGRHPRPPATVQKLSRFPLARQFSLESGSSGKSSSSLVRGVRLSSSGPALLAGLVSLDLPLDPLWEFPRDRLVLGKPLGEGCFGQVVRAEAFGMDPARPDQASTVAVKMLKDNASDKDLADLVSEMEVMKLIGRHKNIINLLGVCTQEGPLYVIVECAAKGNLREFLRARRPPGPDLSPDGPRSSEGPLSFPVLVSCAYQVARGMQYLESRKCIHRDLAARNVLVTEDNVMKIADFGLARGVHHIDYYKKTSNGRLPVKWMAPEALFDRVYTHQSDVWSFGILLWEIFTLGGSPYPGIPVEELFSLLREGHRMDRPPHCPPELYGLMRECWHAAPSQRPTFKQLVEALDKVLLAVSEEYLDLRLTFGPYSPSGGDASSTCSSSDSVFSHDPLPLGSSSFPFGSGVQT
ASSAY TEXT: FGFR Enzymatic Assay (FRET peptide phosphorylation), FGFR4
pIC50: −log10 of the molar value.
METRIC: pIC50

Use these answered entries as a reference point.
| COMPOUND | OBSERVED MEASUREMENT |
| --- | --- |
| COCCN1CCN(c2ccc(-c3n[nH]c4cc(OC)c(-c5cccc(CC#N)c5C)nc34)cn2)CC1 [Example 166] | 7.00 to 7.40 |
| COc1cc2[nH]nc(-c3cnn(C)c3)c2nc1-c1cccc(CC#N)c1C [Example 5] | < 7.00 |

// query pIC50 value for entry CCN1CCN(c2ccc(-c3n[nH]c4cc(OC)c(-c5cccc(C)c5C)nc34)cn2)CC1 [Example 42] < 7.00
